IC50 values recorded for ROCK2 (Homo sapiens, UniProt O75116)

Here are 2 molecules together with their reported answers.
| sample-smiles | IC50 |
| --- | --- |
| Cn1cc(C(=O)Nc2cccc(-n3ccc(Nc4ccc5[nH]ncc5c4)n3)c2)cn1 | 0.3 to 3 µM |
| Cn1cc(C(=O)Nc2cc(-c3nnc(Nc4ccc5[nH]ncc5c4Cl)o3)cn(C)c2=O)cn1 | < 0.3 µM |

Exam item: Query IC50 on ROCK2 (Homo sapiens, UniProt O75116) for Cc1cn(-c2ccc3c(c2)CCN(C(=O)C2CCCC2)C3)nc1Nc1ccc2[nH]ncc2c1Cl
Sequence (O75116 whole entry): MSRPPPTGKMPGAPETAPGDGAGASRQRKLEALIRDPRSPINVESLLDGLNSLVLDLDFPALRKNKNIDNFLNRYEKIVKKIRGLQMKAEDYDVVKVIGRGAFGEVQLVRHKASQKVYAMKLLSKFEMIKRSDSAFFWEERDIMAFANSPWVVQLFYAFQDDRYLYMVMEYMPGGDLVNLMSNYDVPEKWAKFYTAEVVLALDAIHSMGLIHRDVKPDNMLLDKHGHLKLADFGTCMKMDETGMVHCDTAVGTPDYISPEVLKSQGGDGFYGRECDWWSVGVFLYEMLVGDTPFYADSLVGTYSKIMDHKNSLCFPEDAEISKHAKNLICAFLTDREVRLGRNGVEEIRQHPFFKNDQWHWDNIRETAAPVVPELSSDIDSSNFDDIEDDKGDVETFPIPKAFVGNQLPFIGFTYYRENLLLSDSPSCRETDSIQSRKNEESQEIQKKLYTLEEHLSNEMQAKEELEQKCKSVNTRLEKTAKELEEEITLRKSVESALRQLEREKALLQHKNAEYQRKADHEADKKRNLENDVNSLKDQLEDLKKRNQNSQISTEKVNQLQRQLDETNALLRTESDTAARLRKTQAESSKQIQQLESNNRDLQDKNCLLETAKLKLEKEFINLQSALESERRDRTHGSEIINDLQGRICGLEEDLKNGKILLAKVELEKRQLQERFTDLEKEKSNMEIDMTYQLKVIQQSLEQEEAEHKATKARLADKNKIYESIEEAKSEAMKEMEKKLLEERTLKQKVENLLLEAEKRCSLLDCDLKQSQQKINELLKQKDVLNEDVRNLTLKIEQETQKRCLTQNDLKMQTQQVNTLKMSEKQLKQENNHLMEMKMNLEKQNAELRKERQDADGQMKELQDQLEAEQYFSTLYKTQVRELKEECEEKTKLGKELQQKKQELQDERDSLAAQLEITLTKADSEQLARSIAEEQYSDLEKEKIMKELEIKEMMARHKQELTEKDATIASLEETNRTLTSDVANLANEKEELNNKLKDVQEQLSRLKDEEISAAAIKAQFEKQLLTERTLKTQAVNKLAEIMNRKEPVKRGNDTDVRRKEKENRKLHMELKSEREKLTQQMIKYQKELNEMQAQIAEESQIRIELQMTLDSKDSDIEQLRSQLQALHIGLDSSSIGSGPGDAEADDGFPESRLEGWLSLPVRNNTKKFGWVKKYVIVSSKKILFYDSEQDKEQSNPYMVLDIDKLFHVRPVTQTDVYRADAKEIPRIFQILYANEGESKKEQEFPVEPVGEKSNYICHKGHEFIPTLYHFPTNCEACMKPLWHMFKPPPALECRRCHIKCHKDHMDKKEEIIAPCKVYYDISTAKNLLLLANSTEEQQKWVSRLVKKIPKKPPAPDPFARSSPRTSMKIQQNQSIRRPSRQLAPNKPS
Marked response: > 10 µM

Exam item: For the record Cn1cc(C(=O)Nc2cc(-n3nc(Nc4ccc5[nH]ncc5c4Cl)c4ccccc43)cn(C)c2=O)cn1 , what value of IC50 is listed for ROCK2 (Homo sapiens, UniProt O75116)?
Marked response: > 10 µM

Exam item: Report IC50 for COC(=O)CN1CCOc2cc(-n3cc(C)c(Nc4ccc5[nH]ncc5c4Cl)n3)ccc21 tested on ROCK2 (Homo sapiens, UniProt O75116).
Marked response: > 10 µM
